Please go through the items and note down their IC50.
Put your answer as a value accompanied by its unit after it.

### Prompt System NDM‐1 (Klebsiella pneumoniae, UniProt C7C422). Read-out IC50. Item `O=C(CSCCS)c1ccc(Cl)cc1` . Report value.
### Response 5630 nM

### Prompt Please indicate recorded IC50 of CN(C(=O)CSCCS)[C@H]1CCCC[C@@H]1O (relative stereo) measured with NDM‐1 (Klebsiella pneumoniae, UniProt C7C422).
Sequence (C7C422 29-270, looked up, species assumed): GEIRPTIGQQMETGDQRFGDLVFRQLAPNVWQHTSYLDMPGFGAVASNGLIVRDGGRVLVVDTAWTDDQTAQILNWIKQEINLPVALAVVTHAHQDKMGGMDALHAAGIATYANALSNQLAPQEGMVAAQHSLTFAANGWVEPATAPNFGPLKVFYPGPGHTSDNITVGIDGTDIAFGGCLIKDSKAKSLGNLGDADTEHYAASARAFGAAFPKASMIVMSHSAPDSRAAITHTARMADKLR
### Response 5500 nM

### Prompt GET IC50 where system = NDM‐1 (Klebsiella pneumoniae, UniProt C7C422) and item = O=C1C(SCCS)CCN1c1ccccc1 (stereo not drawn)
### Response 1410 nM

### Prompt Report value: IC50, system: NDM‐1 (Klebsiella pneumoniae, UniProt C7C422), compound: CN1CCC(SCCCS)C1=O (stereo not drawn)
### Response 1580 nM

### Prompt Report its IC50 with NDM‐1 (Klebsiella pneumoniae, UniProt C7C422) as the test system: `CN(Cc1ccc(Cl)cc1)C(=O)CSCCS`
### Response 580 nM

### Prompt Report IC50 from NDM‐1 (Klebsiella pneumoniae, UniProt C7C422) testing of CCOC(=O)C(SCCS)c1ccc([N+](=O)[O-])cc1 (stereo not drawn)
### Response 1550 nM

### Prompt Look up and report IC50, with NDM‐1 (Klebsiella pneumoniae, UniProt C7C422) as system, for `COc1ccc(C(=O)CSCCCS)cc1`
### Response 430 nM

### Prompt Give IC50; test system NDM‐1 (Klebsiella pneumoniae, UniProt C7C422); compound COC(=O)C(SCCS)c1ccc(Cl)cc1 (stereo not drawn)
### Response 880 nM

### Prompt State IC50 on NDM‐1 (Klebsiella pneumoniae, UniProt C7C422). Entry: O=C1C(SCCS)CCN1c1nccs1 (stereo not drawn)
### Response 1540 nM

### Prompt GET IC50 | system: NDM‐1 (Klebsiella pneumoniae, UniProt C7C422) | item: `Cc1ccc(S(=O)(=O)N2CCN(C(=O)CSCCS)CC2)cc1`
### Response 2400 nM

### Prompt Quote IC50 with test system NDM‐1 (Klebsiella pneumoniae, UniProt C7C422) for `Cc1ccc(C(=O)CSCCS)cc1`
### Response 3910 nM

### Prompt Would you please give the reported IC50 of CCOC(=O)C(SCCCS)c1ccc([N+](=O)[O-])cc1 (stereo not drawn) with NDM‐1 (Klebsiella pneumoniae, UniProt C7C422)?
### Response 7790 nM

The reported numbers originate from paper PMC9290507.
